Data provenance is patent US20100048468A1.

- tested_system: human GLP-1 receptor (human, UniProt P43220 24-463)
- assay: cell-based or functional assay
No end group written: not given here.
measurement_kind: EC50 human (nM)
Report as a plain number; the unit nM is understood.

Request: What EC50 human value was documented for this binder, HXEGTFTSDVSSYLEGQAAKEFIAWLVKGRGCSGG (Aib (2-aminoisobutyric acid) at position 8 (GLP-1 numbering; residue 2 of the entry), Unconjugated peptide) [H[Aib]EGT FTSDVSSYLEGQAAKEFIAWLVKGRGCSGG (SEQ ID NO: 11)] ?
Result: 4

Request: Also check HGEGTFTSDVSSYLEGQAAKEFIAWLVKGRGC(PEG 30 kDa)SG [cgGLP-16 (SEQ ID NO: 10 + 30k PEG)]
Result: 0.39

Request: Continue with HXEGTFTSDVSSYLEGQAAKEFIAWLVKGRGCSGG (Aib at position 8 (residue 2 of the entry); 20k PEG on the cysteine at position 38 (GLP-1 numbering; residue 32 of the entry)) [cgGLP-17 (SEQ ID NO: 11 + 20k PEG)]
Result: 20

Request: Please do the same for HGEGTFTSDVSSYLEGQAAKEFIAWLVKGRGC(PEG 30 kDa)SG [cgGLP-8 (SEQ ID NO: 10 + 30k PEG)] as well.
Result: 0.4

Request: # iterate: HGEGTFTSDVSSYLEGQAAKEFIAWLVKGRGCSG (not fully specified (residue 32), also called cgGLP-09A) [cgGLP-4 & mgGLP-09A (SEQ ID NO: 10 + 20k PEG)]
Result: 0.23

Request: Consider next the binder HGEGTFTSDVSSYLEGQAAKEFIAWLVKGRGCSG [HGEGTFTSDVSSYLEGQAAKEFIAWLVKGRGCSG (SEQ ID NO: 10)] in the same way.
Result: 0.05
